Tested on: Type I cytosolic FAS (Homo sapiens)
Construct: incorporation into lipid in MCF7 human breast cancer cell lysates; endogenous in cells
Sequence (P49327 whole entry): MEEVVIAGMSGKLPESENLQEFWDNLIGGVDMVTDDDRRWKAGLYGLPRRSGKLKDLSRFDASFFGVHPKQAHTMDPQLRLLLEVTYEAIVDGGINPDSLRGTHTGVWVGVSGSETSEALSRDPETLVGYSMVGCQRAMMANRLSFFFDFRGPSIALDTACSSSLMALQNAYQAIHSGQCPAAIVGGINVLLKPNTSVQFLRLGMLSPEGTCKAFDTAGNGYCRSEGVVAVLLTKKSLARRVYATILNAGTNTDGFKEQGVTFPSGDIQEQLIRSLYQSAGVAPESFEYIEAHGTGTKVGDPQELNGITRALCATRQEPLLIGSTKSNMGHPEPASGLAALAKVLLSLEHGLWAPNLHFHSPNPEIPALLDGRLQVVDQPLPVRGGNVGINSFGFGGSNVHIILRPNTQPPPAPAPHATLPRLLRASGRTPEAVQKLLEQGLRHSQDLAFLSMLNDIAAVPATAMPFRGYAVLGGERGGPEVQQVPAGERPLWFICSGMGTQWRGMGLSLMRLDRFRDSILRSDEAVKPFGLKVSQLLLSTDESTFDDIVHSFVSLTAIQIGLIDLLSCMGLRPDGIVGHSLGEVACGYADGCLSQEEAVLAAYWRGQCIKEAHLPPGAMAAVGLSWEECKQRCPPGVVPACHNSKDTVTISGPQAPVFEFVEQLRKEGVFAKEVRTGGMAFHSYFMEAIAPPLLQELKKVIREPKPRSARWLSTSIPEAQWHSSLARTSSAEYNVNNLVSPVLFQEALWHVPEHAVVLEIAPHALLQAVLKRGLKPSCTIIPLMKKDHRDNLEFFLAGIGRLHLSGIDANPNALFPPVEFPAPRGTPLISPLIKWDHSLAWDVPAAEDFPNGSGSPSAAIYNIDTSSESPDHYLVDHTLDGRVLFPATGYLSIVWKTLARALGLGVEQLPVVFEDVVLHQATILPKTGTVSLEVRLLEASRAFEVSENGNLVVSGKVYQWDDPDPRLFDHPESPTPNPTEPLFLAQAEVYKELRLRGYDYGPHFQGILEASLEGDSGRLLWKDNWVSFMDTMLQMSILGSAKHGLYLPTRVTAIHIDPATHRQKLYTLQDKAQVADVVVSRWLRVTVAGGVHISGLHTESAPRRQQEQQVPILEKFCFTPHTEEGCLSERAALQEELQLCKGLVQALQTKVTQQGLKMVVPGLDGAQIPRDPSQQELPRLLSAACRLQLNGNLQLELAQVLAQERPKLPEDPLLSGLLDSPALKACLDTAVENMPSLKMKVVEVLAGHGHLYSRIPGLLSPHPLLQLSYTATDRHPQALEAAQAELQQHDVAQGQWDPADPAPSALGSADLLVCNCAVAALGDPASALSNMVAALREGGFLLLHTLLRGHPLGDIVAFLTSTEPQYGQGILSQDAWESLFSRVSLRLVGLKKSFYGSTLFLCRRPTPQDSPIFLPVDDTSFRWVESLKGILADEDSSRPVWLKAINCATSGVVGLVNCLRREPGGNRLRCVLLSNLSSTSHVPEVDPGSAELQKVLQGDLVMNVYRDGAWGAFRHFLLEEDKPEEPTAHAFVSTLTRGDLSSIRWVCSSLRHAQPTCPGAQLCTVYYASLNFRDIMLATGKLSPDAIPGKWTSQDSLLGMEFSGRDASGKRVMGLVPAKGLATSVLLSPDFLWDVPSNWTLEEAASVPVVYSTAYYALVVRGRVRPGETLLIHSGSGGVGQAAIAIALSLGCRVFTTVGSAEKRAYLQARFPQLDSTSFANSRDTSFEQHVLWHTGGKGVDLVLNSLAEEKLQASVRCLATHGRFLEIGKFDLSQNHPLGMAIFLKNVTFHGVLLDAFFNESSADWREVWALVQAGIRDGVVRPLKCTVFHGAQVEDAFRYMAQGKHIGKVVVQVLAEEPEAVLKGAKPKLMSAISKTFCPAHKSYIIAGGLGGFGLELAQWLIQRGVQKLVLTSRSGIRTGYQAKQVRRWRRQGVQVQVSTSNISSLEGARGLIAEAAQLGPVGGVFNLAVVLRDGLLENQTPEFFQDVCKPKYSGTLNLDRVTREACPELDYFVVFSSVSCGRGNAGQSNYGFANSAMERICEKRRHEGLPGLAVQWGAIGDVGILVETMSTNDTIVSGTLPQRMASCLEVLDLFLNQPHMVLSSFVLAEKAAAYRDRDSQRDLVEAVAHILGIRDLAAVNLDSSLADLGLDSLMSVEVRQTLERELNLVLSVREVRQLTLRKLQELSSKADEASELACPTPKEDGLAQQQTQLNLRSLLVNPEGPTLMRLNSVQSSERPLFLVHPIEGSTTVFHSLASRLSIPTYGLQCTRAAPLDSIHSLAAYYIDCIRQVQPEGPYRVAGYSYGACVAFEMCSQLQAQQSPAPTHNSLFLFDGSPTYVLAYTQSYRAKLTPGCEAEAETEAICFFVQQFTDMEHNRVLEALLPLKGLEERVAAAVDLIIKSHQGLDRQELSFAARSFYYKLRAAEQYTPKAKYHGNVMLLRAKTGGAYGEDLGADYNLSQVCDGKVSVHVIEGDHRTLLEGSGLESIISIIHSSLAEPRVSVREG
Assay summary: Type I cytosolic FAS activity, [14C]malonyl-CoA incorporation into lipid in MCF7 cell lysates
Recorded conditions: MCF7 human breast cancer cell lysates, read-out: IC50, inhibition of Type I cytosolic FAS activity
Readout: IC50
Kindly write the number and append the unit.

Sure, the documented IC50 for CCCCCCCCC1(C)SC(=O)C=C1OCC(=O)Nc1ccc(Cl)cc1 (stereo not shown) is 17.8 µM

====

Tested on: purified rat liver FAS (Rattus norvegicus, UniProt P12785)
Construct: Highly purified rat FAS was obtained from starved and induced Sprague-Dawley rat livers; from tissue; host or cells: liver of starved and induced Sprague-Dawley rats
Sequence (P12785 whole entry): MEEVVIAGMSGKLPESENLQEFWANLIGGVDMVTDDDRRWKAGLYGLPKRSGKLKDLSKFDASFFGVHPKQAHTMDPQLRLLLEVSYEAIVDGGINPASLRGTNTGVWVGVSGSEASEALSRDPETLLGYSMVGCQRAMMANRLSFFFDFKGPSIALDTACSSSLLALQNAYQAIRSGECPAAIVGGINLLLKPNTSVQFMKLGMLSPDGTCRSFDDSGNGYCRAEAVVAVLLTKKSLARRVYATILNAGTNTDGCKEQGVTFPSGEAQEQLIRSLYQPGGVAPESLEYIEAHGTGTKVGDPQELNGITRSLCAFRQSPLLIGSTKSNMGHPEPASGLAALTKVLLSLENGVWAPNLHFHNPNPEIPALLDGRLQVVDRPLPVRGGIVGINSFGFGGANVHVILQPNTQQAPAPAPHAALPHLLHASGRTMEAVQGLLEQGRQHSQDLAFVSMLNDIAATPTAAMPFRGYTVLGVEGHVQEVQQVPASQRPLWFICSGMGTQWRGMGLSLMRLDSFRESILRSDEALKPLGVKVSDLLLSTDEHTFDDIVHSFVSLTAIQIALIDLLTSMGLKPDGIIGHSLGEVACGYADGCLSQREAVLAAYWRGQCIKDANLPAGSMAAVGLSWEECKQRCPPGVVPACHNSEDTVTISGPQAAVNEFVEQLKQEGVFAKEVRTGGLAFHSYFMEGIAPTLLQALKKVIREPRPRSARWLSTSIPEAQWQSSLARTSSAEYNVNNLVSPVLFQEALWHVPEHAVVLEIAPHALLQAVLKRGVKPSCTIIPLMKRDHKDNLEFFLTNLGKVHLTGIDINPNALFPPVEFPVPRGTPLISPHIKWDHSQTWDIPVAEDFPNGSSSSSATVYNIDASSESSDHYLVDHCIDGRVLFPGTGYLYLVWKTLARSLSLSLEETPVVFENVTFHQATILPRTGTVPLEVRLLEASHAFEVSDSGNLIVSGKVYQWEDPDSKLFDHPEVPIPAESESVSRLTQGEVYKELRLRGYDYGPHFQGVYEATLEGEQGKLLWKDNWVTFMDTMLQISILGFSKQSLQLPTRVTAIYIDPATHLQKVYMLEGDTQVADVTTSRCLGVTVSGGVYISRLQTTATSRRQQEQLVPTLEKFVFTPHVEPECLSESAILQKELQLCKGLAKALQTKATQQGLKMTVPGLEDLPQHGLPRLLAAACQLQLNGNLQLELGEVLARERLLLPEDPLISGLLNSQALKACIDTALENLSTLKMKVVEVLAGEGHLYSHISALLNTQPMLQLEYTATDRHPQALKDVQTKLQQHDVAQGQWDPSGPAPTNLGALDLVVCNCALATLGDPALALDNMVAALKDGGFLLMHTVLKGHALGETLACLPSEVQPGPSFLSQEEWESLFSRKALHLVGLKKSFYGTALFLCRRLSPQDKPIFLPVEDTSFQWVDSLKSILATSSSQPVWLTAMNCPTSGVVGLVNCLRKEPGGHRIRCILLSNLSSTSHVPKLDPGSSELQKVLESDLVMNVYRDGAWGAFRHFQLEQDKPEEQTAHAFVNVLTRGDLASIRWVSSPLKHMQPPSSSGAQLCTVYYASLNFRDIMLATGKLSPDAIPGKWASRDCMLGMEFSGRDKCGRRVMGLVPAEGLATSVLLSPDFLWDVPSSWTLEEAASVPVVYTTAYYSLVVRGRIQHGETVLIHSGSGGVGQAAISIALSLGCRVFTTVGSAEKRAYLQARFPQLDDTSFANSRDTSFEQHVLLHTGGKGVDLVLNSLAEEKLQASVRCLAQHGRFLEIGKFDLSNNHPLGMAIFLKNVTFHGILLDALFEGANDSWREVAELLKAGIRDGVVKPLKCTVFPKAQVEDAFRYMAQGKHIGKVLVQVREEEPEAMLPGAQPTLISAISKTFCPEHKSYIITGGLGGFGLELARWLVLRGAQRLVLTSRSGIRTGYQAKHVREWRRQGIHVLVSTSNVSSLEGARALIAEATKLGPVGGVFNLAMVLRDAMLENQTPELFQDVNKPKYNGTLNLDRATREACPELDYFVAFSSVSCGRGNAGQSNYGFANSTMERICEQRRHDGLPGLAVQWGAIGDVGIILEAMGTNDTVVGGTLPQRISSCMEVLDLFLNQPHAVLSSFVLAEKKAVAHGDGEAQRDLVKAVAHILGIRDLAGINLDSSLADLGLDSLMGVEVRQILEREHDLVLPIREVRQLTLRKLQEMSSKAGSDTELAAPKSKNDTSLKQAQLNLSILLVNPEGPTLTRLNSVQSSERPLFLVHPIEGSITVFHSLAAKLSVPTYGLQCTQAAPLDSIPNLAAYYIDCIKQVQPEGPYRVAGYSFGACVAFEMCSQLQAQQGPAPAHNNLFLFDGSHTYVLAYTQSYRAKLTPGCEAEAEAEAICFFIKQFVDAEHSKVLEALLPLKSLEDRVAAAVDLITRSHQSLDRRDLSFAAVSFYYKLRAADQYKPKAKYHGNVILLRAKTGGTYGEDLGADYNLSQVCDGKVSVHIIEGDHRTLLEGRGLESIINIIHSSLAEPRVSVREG
Assay summary: purified rat Type I FAS, spectrophotometric NADPH oxidation
Format: biochemical
Readout: pIC50
Answers are plain numbers, as −log10 of the molar value.

response.value for CCCCCCCCC1(C)SC(=O)C=C1OCC(=O)Nc1ccc(Cl)cc1 (stereo not shown) (field: pIC50) = 4.38

====

Tested on: purified rat liver FAS (Rattus norvegicus, UniProt P12785)
Construct: Highly purified rat FAS was obtained from starved and induced Sprague-Dawley rat livers; from tissue; host or cells: liver of starved and induced Sprague-Dawley rats
Assay summary: purified rat Type I FAS, spectrophotometric NADPH oxidation
Type: biochemical
Recorded conditions: approximate
pIC50: −log10 of the molar value.
Readout: pIC50

Value of pIC50 reported for the compound CCCCCCCCC1(C)SC(=O)C=C1OCC(=O)Nc1ccc(Cl)cc1 (stereo not shown) is ~4.39
